Each record here notes measured log10(EC50).
Biological target: human muscarinic M4 receptor (Homo sapiens, UniProt P08173)
Construct: expressed in transfected cells
Sequence (P08173 whole entry): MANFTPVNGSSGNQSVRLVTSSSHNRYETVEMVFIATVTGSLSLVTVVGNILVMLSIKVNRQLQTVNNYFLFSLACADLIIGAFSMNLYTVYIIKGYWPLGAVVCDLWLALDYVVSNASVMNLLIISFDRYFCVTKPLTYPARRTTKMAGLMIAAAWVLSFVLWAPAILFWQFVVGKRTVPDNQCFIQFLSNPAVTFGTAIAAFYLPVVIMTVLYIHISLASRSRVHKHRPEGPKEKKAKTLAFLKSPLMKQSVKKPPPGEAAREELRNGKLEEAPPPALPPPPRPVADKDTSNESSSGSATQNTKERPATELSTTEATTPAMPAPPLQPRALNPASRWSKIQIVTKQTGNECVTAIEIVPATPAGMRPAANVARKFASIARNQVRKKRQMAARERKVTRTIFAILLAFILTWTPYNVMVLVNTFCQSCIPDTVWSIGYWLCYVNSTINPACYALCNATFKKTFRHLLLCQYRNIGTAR
Assay: Alphascreen Surefire phospho-ERK1/2 functional assay, M4
Type: cell-based
Conditions: CHO cells stably expressing human M4; phospho-ERK1/2; read-out: pEC50 M4 (converted)
Quantity kind: log10(EC50) (log10 of the value in nM)

{"columns": ["Molecule", "Tested system", "Quantity kind", "Readout number"],
 "data": [
  ["CCC1N(CC)C(=O)OC12CCN(C1CC3(CCN(C(=O)OC)C3)C1)CC2 (single isomer, unassigned) [4-21 Isomer 2 (racemic)]", "human muscarinic M4 receptor (Homo sapiens, UniProt P08173)", "log10(EC50)", 2.30],
  ["CCN1NC(=O)CC12CCN(C1CC3(CCN(C(=O)OC)C3)C1)CC2 (single isomer, unassigned) [6-1 Isomer 2]", "human muscarinic M4 receptor (Homo sapiens, UniProt P08173)", "log10(EC50)", 2.10],
  ["CCOC(=O)N1CC2(CC(N3CCC4(CC3)OC(=O)NC4(C)C)C2)C1 [Example 2-3]", "human muscarinic M4 receptor (Homo sapiens, UniProt P08173)", "log10(EC50)", 3.00],
  ["CCOC(=O)N1CCC2(CC(N3CCC4(CC3)OC(=O)N(CC)C4(C)C)C2)C1 (single isomer, unassigned) [4-35 Isomer 2]", "human muscarinic M4 receptor (Homo sapiens, UniProt P08173)", "log10(EC50)", 1.50],
  ["CCCN1C(=O)OC2(CCN(C3CC4(CCN(C(=O)OC)C4)C3)CC2)C1(C)C (single isomer, unassigned) [4-36 Isomer 2]", "human muscarinic M4 receptor (Homo sapiens, UniProt P08173)", "log10(EC50)", 1.90],
  ["CCOC(=O)N1CCC2(CC(N3CCC4(CC3)OC(=O)N(CC3CC3)C4CC)C2)C1 (single isomer, unassigned) [4-25 Isomer 2 (racemic)]", "human muscarinic M4 receptor (Homo sapiens, UniProt P08173)", "log10(EC50)", 2.10],
  ["COC(=O)N1CCC2(CC(N3CCC4(CC3)CNC(=O)C4)C2)C1 (single isomer, unassigned) [3-1 Isomer 2]", "human muscarinic M4 receptor (Homo sapiens, UniProt P08173)", "log10(EC50)", 2.00],
  ["COC(=O)N1CCC2(CC(N3CCC4(CC3)OC(=O)N3CCCC34)C2)C1 (single isomer, unassigned) [4-45 Isomer 2]", "human muscarinic M4 receptor (Homo sapiens, UniProt P08173)", "log10(EC50)", 2.50],
  ["CCOC(=O)N1CCC2(CC(N3CCC4(CC3)CNC(=O)N4)C2)C1 (single isomer, unassigned) [5-2 Isomer 2]", "human muscarinic M4 receptor (Homo sapiens, UniProt P08173)", "log10(EC50)", 2.50],
  ["CCCN1CC2(CCN(C3CC4(CCN(C(=O)OCC)C4)C3)CC2)OC1=O (single isomer, unassigned) [4-7 Isomer 2]", "human muscarinic M4 receptor (Homo sapiens, UniProt P08173)", "log10(EC50)", 2.70],
  ["CCCN1NC(=O)CC12CCN(C1CC3(CCN(C(=O)OCC)C3)C1)CC2 (single isomer, unassigned) [6-4 Isomer 2]", "human muscarinic M4 receptor (Homo sapiens, UniProt P08173)", "log10(EC50)", 0.60],
  ["CCC1NC(=O)CC12CCN(C1CC3(CCN(C(=O)OC)C3)C1)CC2 (single isomer, unassigned) [3-4 Isomer 2]", "human muscarinic M4 receptor (Homo sapiens, UniProt P08173)", "log10(EC50)", 2.30]
]}
